Measured Anti-CD28 Fab (SEQ ID NOs: 202, 203) signal accompanies every entry in the list below.
Target: T1, Anti-CD28 Fab (SEQ ID NOs: 202, 203)
T1 construct: biotinylated and captured on neutravidin coated plates in the phage ELISA
T1 sequence (VH, as listed by the source, chain 1 of 2): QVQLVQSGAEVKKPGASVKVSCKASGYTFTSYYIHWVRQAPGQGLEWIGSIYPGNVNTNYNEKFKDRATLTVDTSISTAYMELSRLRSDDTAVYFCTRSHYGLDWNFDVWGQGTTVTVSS
T1 sequence (VL, as listed by the source, chain 2 of 2): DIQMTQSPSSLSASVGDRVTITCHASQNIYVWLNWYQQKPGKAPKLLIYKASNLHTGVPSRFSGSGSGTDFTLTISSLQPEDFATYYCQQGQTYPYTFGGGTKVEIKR
Assay: phage ELISA, Fab on plate;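 also: crude clonal phage supernatants added to wells pretreated with blocking buffer with or without CD28 antigen, then bound phage read out via HRP-linked anti-M13 antibody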
experimental.readout: Anti-CD28 Fab (SEQ ID NOs: 202, 203) signal

# binder, result
data = [
    ("YCVGHLPEYMLECM [Phage-739]", 1.08),
    ("YCDGHSQEYMSKCL [Phage-699]", 1.21),
    ("YCDGHAPEYIQKCL [Phage-625]", 1.38),
    ("YCQGHSPNYITKCF [Phage-608]", 1.41),
    ("YCEGHSSLYLEKCL [Phage-732]", 1.11),
]
